TARGET_OR_TEST_SYSTEM: Pantothenate kinase 3 (Homo sapiens, UniProt Q9H999)
Sequence (Q9H999 whole entry): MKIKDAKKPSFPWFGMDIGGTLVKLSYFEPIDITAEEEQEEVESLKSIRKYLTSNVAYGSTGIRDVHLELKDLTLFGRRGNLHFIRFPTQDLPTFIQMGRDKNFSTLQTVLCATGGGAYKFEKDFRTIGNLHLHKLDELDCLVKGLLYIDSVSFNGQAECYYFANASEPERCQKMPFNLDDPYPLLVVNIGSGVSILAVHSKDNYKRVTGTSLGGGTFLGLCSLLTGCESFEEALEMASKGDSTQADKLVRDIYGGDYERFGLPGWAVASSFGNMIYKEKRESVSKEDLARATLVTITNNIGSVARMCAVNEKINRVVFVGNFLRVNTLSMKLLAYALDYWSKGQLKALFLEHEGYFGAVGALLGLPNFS
PROTOCOL: Inhibition of Pank3 (unknown origin) by Kinase Glo HTS assay
Listing: IC50 of selected molecules
MEASURED_PROPERTY: IC50 (µM)

[[record]]
structure_smiles = "CC(C)CCNC(=O)c1csc(-c2cccc(Cl)c2Cl)n1"
target_or_test_system = "Pantothenate kinase 3 (Homo sapiens, UniProt Q9H999)"
unit_of_measurement = "µM"
inequality_sign = "="
obs_value = 2.45

[[record]]
structure_smiles = "Cc1nc2c3cccnc3nn2c(C)c1CCC(=O)Nc1cccc(C(F)(F)F)c1"
target_or_test_system = "Pantothenate kinase 3 (Homo sapiens, UniProt Q9H999)"
unit_of_measurement = "µM"
inequality_sign = "="
obs_value = 0.83

[[record]]
structure_smiles = "COc1ccccc1NC(=O)CCc1c(C)nc2c3cccnc3nn2c1C"
target_or_test_system = "Pantothenate kinase 3 (Homo sapiens, UniProt Q9H999)"
unit_of_measurement = "µM"
inequality_sign = ">"
obs_value = 56

[[record]]
structure_smiles = "Cc1nc2c3cccnc3nn2c(C)c1CCC(=O)NCC1CCCCC1"
target_or_test_system = "Pantothenate kinase 3 (Homo sapiens, UniProt Q9H999)"
unit_of_measurement = "µM"
inequality_sign = "="
obs_value = 40.9

[[record]]
structure_smiles = "Cc1cccc(NC(=O)CCc2c(C)nc3c4cccnc4nn3c2C)c1"
target_or_test_system = "Pantothenate kinase 3 (Homo sapiens, UniProt Q9H999)"
unit_of_measurement = "µM"
inequality_sign = "="
obs_value = 3.84

[[record]]
structure_smiles = "Cc1nc2c3cccnc3nn2c(C)c1CCC(=O)NCc1ccc(F)cc1"
target_or_test_system = "Pantothenate kinase 3 (Homo sapiens, UniProt Q9H999)"
unit_of_measurement = "µM"
inequality_sign = ">"
obs_value = 56

